Recorded viability at 28.5 h, 10 µM values for a group of molecules are listed next.
Experiment: in vitro
Conditions: human, hela cells, % viability
Give a bare numeral; the unit % is implied.

The examples below pair each entry with its known result.
molecule=CC(C)(c1ccccc1)c1ccc(OCC(=O)Nc2cccc(C(=O)O)c2)cc1 numeric_value=102
molecule="CC1CCC2(CC1)NC(=O)N(Cc1csc(-c3ccco3)n1)C2=O (stereo not shown)" numeric_value=98.6
molecule=CC(=O)Nc1ccc(S(=O)(=O)Nc2cc(C)c(-n3nc4ccccc4n3)cc2O)cc1 numeric_value=81.2
molecule="O=C(CC1(O)C(=O)N(Cc2ccc3c(c2)OCO3)c2ccccc21)c1ccccn1 (stereo not shown)" numeric_value=94.2
molecule=O=C(O)CCSc1nc2ccccc2n1CCOc1ccccc1 numeric_value=95.9

Form field viability at 28.5 h, 10 µM, entry O=C1CC(N2CCN(c3ccccc3)CC2)C(=O)N1c1cccc2ccccc12 (stereo not shown) : 92.8

Form field viability at 28.5 h, 10 µM, entry `COc1ccc(CNC(=O)[C@H]2C=CCN2C(=O)c2ccco2)cc1` : 71.9

----------
Experiment: in vitro
Conditions: human, hela cells, % viability
Recorded viability at 28.5 h, 10 µM values for a group of molecules are listed next.

The examples below pair each entry with its known result.
molecule="COc1cc(-c2nccnc2NCCCO)cc(OC)c1OC [CBK037274]" measurement_kind="viability at 28.5 h, 10 µM" result=105%
molecule="Nc1ncc(-c2cccc(-c3ccccc3)c2)nc1NCc1cccnc1 [CBK063491]" measurement_kind="viability at 28.5 h, 10 µM" result=93.5%
molecule="CC1Cc2cc(C(O)CN3CCC4CCCCC4C3)ccc2N1S(C)(=O)=O (stereo not drawn) [CBK286456]" measurement_kind="viability at 28.5 h, 10 µM" result=116%

Below: the item to evaluate.
Form field viability at 28.5 h, 10 µM, entry COc1ccc(-c2cc(C(=O)NCCc3ccccn3)cnc2-c2cccc(C)c2)cc1 [CBK036730] : 93.7%

----------
Recorded viability at 28.5 h, 10 µM values for a group of compounds are listed next.
Assay: in vitro
Conditions: human, hela cells, % viability
Give a bare numeral; the unit % is implied.

The examples below pair each entry with its known result.
compound=CC1(C)N=C(c2ccc(Cl)cc2Cl)C(=S)N1 numeric_value=88.3
compound="CN(C)CCC1CCCCN1C(=O)[C@@H]1C[C@@H]2C=C[C@H]1C2 (stereo partly drawn)" numeric_value=89.2

Below: the item to evaluate.
Form field viability at 28.5 h, 10 µM, entry `O=C(N[C@H]1C[C@H]2C(=O)NC[C@@H](CCC(=O)N3CCCCC3)N2C1)c1cccs1` : 87.9

----------
Test: in vitro
Conditions: human, hela cells, % viability
Could you please mark T for values of viability at 28.5 h, 10 µM below 90% and F for values at or above it?

# strict comparison: is reported viability at 28.5 h, 10 µM < 90%? input = OC(CN1CCC(O)(c2ccc3c(c2)OCO3)CC1)c1ccc2c(c1)CCC2 (stereo not drawn)
F

# strict comparison: is reported viability at 28.5 h, 10 µM < 90%? input = COc1ccc(C)cc1S(=O)(=O)N1CCc2c(CN3CCOCC3)cccc21 [CBK113630T]
T

# strict comparison: is reported viability at 28.5 h, 10 µM < 90%? input = Cc1nn(C)cc1CN(Cc1ccccc1)CC1CCCO1 (stereo not drawn)
F
